Experiment: Dissolution rate of drug into water, solid dispersion with low molecular weight chitosan C-5 versus drug alone (Example 4)
Assay type: physicochemical
Details: drug alone without additive; 10 to 30 mg in 60 ml, 57 rpm, water 37° C.
outcome_measure: Average Dissolution Time, Drug alone (min)
The figure you give is taken to be in min; do not add the unit.

Reference set (5 entries):
Lab note: measured Average Dissolution Time, Drug alone of O=C1NC(=O)C(c2ccccc2)(c2ccccc2)N1 [Phenytoin, phenytoin] was 35.9

Lab note: measured Average Dissolution Time, Drug alone of COc1ccc2c(c1)c(CC(=O)O)c(C)n2C(=O)c1ccc(Cl)cc1 [Indomethacin, indomethacin] was 24.8

Lab note: measured Average Dissolution Time, Drug alone of C[C@]12C=CC(=O)C=C1CC[C@H]1[C@@H]3C[C@@H](O)[C@](O)(C(=O)CO)[C@@]3(C)C[C@H](O)[C@@]12F [Triamcinolone, triamcinolone] was 24.3

Lab note: measured Average Dissolution Time, Drug alone of C[C@]12C=CC(=O)C=C1CC[C@@H]1[C@@H]2[C@@H](O)C[C@@]2(C)[C@H]1CC[C@]2(O)C(=O)CO [Prednisolone, prednisolone] was 18.7

Lab note: measured Average Dissolution Time, Drug alone of C[C@H]1O[C@@H](O[C@H]2[C@@H](O)C[C@H](O[C@H]3[C@@H](O)C[C@H](O[C@H]4CC[C@@]5(C)[C@H](CC[C@@H]6[C@@H]5C[C@@H](O)[C@]5(C)[C@@H](C7=CC(=O)OC7)CC[C@]65O)C4)O[C@@H]3C)O[C@@H]2C)C[C@H](O)[C@@H]1O [Digoxin, digoxin] was 40.9

---
Lab note: measured Average Dissolution Time, Drug alone of C[C@H]1C[C@H]2[C@@H]3CCC4=CC(=O)C=C[C@]4(C)[C@@]3(F)[C@@H](O)C[C@]2(C)[C@@]1(O)C(=O)CO [Betamethasone, betamethasone] was 45.9

Lab note: measured Average Dissolution Time, Drug alone of CC(C(=O)O)c1ccc(-c2ccccc2)c(F)c1 (stereo not shown) [Flurbiprofen, flurbiprofen] was 46.1
